Listed below are molecules with IC50 for Tyrosine-protein phosphatase non-receptor type 2 (Homo sapiens, UniProt P17706), each taken from published literature.

- MOLECULE: "O=C(NC1CCN(Cc2ccccc2)C1)c1ccc2sc(C(F)(F)P(=O)(O)O)c(Br)c2c1 (stereo not drawn)"
  IC50: "4.89 µM"
- MOLECULE: "O=C1CN(c2c(O)cc(CN[C@@H]3CCCN(S(=O)(=O)c4cccc(F)c4)C3)cc2F)S(=O)(=O)N1"
  IC50: "0.088 µM"
- MOLECULE: "Cn1ccc(-c2ccc(O)c(N3CC(=O)NS3(=O)=O)c2F)c1"
  IC50: "≤ 1 µM"

Look up and state reported IC50 for CC1CC=C(c2ccc(O)c(N3CC(=O)NS3(=O)=O)c2F)CN1 (stereo not drawn)
≤ 1 µM

Look up and state reported IC50 for O=C1CN(c2c(O)ccc(-c3cnn(CC4(Cl)CCC4)c3)c2F)S(=O)(=O)N1
≤ 1 µM

Look up and state reported IC50 for NC(=O)Cc1cc(-c2ccc(O)c(N3CC(=O)NS3(=O)=O)c2F)[nH]n1
≤ 1 µM

Look up and state reported IC50 for COC(=O)C1C=C(c2ccc(O)c(N3CC(=O)NS3(=O)=O)c2F)CN1 (stereo not drawn)
≤ 1 µM

Look up and state reported IC50 for O=C1CN(c2c(O)ccc(-c3cc(N4CCC5(CCC5)C4)n[nH]3)c2F)S(=O)(=O)N1
≤ 1 µM

Look up and state reported IC50 for CCC(NC(=O)c1ccc2sc(C(F)(F)P(=O)(O)O)c(Br)c2c1)c1nccs1 (stereo not drawn)
5.78 µM

Look up and state reported IC50 for Cn1c(=O)c(N2CCCC2)cc2cc(N3CC(=O)NS3(=O)=O)c(O)cc21
1 to 10 µM

Look up and state reported IC50 for N#Cc1cc(F)cc(-n2cnc(-c3ccc(O)c(N4CC(=O)NS4(=O)=O)c3F)c2)c1
≤ 1 µM

Look up and state reported IC50 for Cn1ncc(-c2ccc(O)c(N3CC(=O)NS3(=O)=O)c2F)n1
≤ 1 µM

Look up and state reported IC50 for Cn1c(=O)c(NCC2(C#N)CC2)cc2cc(N3CC(=O)NS3(=O)=O)c(O)cc21
1 to 10 µM
